These measurements were taken from the supplement of paper PMC12592484.

# drug sensitivity score per entry
# System: CAF#3 (primary prostate cancer-associated fibroblasts of myCAF-like type)
# ASSAY COMMENT: drug sensitivity score (DSS2, normalised partial AUC of dose-response, 72 h CellTiter-Glo viability) (DSS (dimensionless)); higher = more sensitive (stronger growth inhibition / cytotoxicity); extreme values may be limits of the assay
Please reply with the value in numeric form only.

Before answering, review these 6 worked examples.
| COMPOUND | TEST TARGET | drug sensitivity score |
| --- | --- | --- |
| Nc1nc2[nH]cc(CCc3ccc(C(=O)N[C@@H](CCC(=O)O)C(=O)O)cc3)c2c(=O)[nH]1 [Pemetrexed] (tested concentration range 1-10000 nM) | CAF#3 | 0.5 |
| CO[C@H]1CC[C@H](N2C(=O)CNc3ncc(-c4ccc(C(C)(C)O)nc4)nc32)CC1 [ATG-008] (tested concentration range 1-10000 nM) | CAF#3 | 5.5 |
| O=C(O)CCCCC(CCSCc1ccccc1)SCc1ccccc1 (stereo not drawn) [Devimistat] (tested concentration range 1-10000 nM) | CAF#3 | 0 |
| CNc1ncc2cc(-c3cc(NC(=O)NCCC(C)(C)C)c(F)cc3C)c(C)nc2n1 (tested concentration range 1-10000 nM) | CAF#3 | 1.6 |
| Cc1ncc(Cl)cc1NCc1ccc(C(=O)N[C@@H](CC2CCCC2)C(=O)NC2CC2)s1 (tested concentration range 0.5-5000 nM) | CAF#3 | 0.4 |
| Cc1c(C(=O)Nc2ccc(N3C[C@@H](C)O[C@@H](C)C3)nc2)cccc1-c1ccc(OC(F)(F)F)cc1 [Sonidegib] (tested concentration range 1-10000 nM) | CAF#3 | 0 |

Given item CNC(=O)c1ccccc1Nc1cc(Nc2ccc(N3CCOCC3)cc2OC)ncc1C(F)(F)F [VS-4718] (tested concentration range 1-10000 nM) , the value recorded as its drug sensitivity score is 8.1

Given item CC(C)(C#N)c1cc(Cn2cncn2)cc(C(C)(C)C#N)c1 [Anastrozole] (tested concentration range 1-10000 nM) , the value recorded as its drug sensitivity score is 0

###

# System: CAF#3
# ASSAY COMMENT: drug sensitivity score (DSS2, normalised partial AUC of dose-response, 72 h CellTiter-Glo viability) (DSS (dimensionless)); higher = more sensitive (stronger growth inhibition / cytotoxicity); extreme values may be limits of the assay
Lab note: anything with drug sensitivity score at or over 0.2 counts as true; the rest go in false.

Please review the entries below; each comes with its answer.
| COMPOUND | ANSWER LABEL |
| --- | --- |
| CC(C)(O)CNc1nc(Nc2ccnc(C(F)(F)F)c2)nc(-c2cccc(C(F)(F)F)n2)n1 [Enasidenib] (tested concentration range 1-10000 nM) | true |
| CC[C@@H]1[C@H](F)C(=O)N[C@@H]1COc1nccc2cc(C(N)=O)c(OC)cc12 (tested concentration range 1-10000 nM) | false |
| CC[C@H](NC(=O)[C@H](C)NC)C(=O)N1C[C@@H](O)C[C@H]1Cc1c(-c2[nH]c3cc(F)ccc3c2C[C@@H]2C[C@H](O)CN2C(=O)[C@H](CC)NC(=O)[C@H](C)NC)[nH]c2cc(F)ccc12 [Birinapant] (tested concentration range 0.1-1000 nM) | false |
| Nc1ncnc2c1nc(Cl)n2[C@@H]1O[C@H](CO)[C@@H](O)[C@H]1O [8-chloro-adenosine] (tested concentration range 5-50000 nM) | true |

Ask: Assess whether reported drug sensitivity score for O=C1Cc2cc(C(=O)NC3C[C@H]4CC[C@@H](C3)N4S(=O)(=O)CC3CCN(CCCC(F)(F)F)CC3)c(Cl)cc2N1 (some centres undefined) (tested concentration range 1-10000 nM) sits at 0.2 or higher.
Reply: false

###

# System: CAF#2 (primary prostate cancer-associated fibroblasts of iCAF-like type)
# ASSAY COMMENT: drug sensitivity score (DSS2, normalised partial AUC of dose-response, 72 h CellTiter-Glo viability) (DSS (dimensionless)); higher = more sensitive (stronger growth inhibition / cytotoxicity); extreme values may be limits of the assay
# drug sensitivity score per entry

Before answering, review these 2 worked examples.
| COMPOUND | drug sensitivity score |
| --- | --- |
| CC(C)Oc1ccc(-c2nn([C@@H](C)c3oc4ccc(F)cc4c(=O)c3-c3cccc(F)c3)c3ncnc(N)c23)cc1F [Umbralisib] (tested concentration range 0.2-2500 nM) | 0.9 |
| COC(=O)C[C@](O)(CCCC(C)(C)O)C(=O)O[C@@H]1C(OC)=C[C@]23CCCN2CCc2cc4c(cc2[C@H]13)OCO4 [Omacetaxine] (tested concentration range 1-10000 nM) | 21.9 |

Given item CC1(COc2ccc3c(c2)ncn3-c2ccc3cccc(N4CCC(N)CC4)c3n2)COC1 [Crenolanib] (tested concentration range 1-10000 nM) , the value recorded as its drug sensitivity score is 7.3

Given item Cc1nc(Nc2ncc(C(=O)Nc3c(C)cccc3Cl)s2)cc(N2CCN(CCO)CC2)n1 [Dasatinib] (tested concentration range 0.1-1000 nM) , the value recorded as its drug sensitivity score is 15.5

Given item COC(=O)N[C@@H](C)CNc1nccc(-c2cn(C(C)C)nc2-c2cc(Cl)cc(NS(C)(=O)=O)c2F)n1 [Encorafenib] (tested concentration range 0.1-1000 nM) , the value recorded as its drug sensitivity score is 0

###

# drug sensitivity score per entry
# Test system: CAF#7 (primary prostate cancer-associated fibroblasts of myCAF-like type)
# ASSAY COMMENT: drug sensitivity score (DSS2, normalised partial AUC of dose-response, 72 h CellTiter-Glo viability) (DSS (dimensionless)); higher = more sensitive (stronger growth inhibition / cytotoxicity); extreme values may be limits of the assay
Please reply with the value in numeric form only.

Before answering, review these 2 worked examples.
| MOLECULE | drug sensitivity score |
| --- | --- |
| O=C1CCc2c(Oc3ccc4c(c3)[C@@H]3[C@H](O4)[C@H]3c3nc4cc(C(F)(F)F)ccc4[nH]3)ccnc2N1 [Lifirafenib] (tested concentration range 1-10000 nM) | 0.7 |
| C[C@@H](Nc1cc(F)cc(F)c1)c1cc(C(=O)N(C)C)cc2c(=O)cc(N3CCOCC3)oc12 [AZD-8186] (tested concentration range 0.1-1000 nM) | 3.9 |

Please turn your attention to the following entry.
Given item Cc1ccc(NC(=O)c2ccc(CN3CCN(C)CC3)cc2)cc1Nc1nccc(-c2cccnc2)n1 [Imatinib] (tested concentration range 1-10000 nM) , the value recorded as its drug sensitivity score is 0.7

###

# System: CAF#7
# ASSAY COMMENT: drug sensitivity score (DSS2, normalised partial AUC of dose-response, 72 h CellTiter-Glo viability) (DSS (dimensionless)); higher = more sensitive (stronger growth inhibition / cytotoxicity); extreme values may be limits of the assay
Assign classes using reported drug sensitivity score values and the ranges low (below 0.1), moderate (0.1 to below 6), high (6 or more), please.

Please review the entries below; each comes with its answer.
| COMPOUND | TEST TARGET | ANSWER LABEL |
| --- | --- | --- |
| O=C(Nc1cccc(Nc2ncc(Br)c(NCCc3cnc[nH]3)n2)c1)N1CCCC1 [BX-912] (tested concentration range 1-10000 nM) | CAF#7 | high |
| CN1CCN(CCOc2cc(OC3CCOCC3)c3c(Nc4c(Cl)ccc5c4OCO5)ncnc3c2)CC1 [Saracatinib] (tested concentration range 1-10000 nM) | CAF#7 | moderate |
| COCC1(CO)C(=O)C2CCN1CC2 (stereo not given) [Eprenetapopt] (tested concentration range 1-10000 nM) | CAF#7 | moderate |
| C[C@]1(O)C[C@@H](c2nc(-c3ccc4ccc(-c5ccccc5)nc4c3)c3c(N)nccn32)C1 [Linsitinib] (tested concentration range 1-10000 nM) | CAF#7 | moderate |
| Cc1nc(C(=O)NCC(=O)O)c(O)c2ccc(Oc3ccccc3)cc12 [Roxadustat] (tested concentration range 1-10000 nM) | CAF#7 | low |
| NC(=O)N1CCC(CC(=O)N2CCC([C@H]3c4ncc(Br)cc4CCc4cc(Cl)cc(Br)c43)CC2)CC1 [Lonafarnib] (tested concentration range 5-50000 nM) | CAF#7 | high |
| COc1cc(Nc2ncc(F)c(Nc3ccc4c(n3)N(COP(=O)(O)O)C(=O)C(C)(C)O4)n2)cc(OC)c1OC [Fostamatinib] (tested concentration range 0.2-2500 nM) | CAF#7 | high |
| CN1CCC(COc2cnc(-c3cccc(Cn4nc(-c5cccc(C#N)c5)ccc4=O)c3)nc2)CC1 [Tepotinib] (tested concentration range 0.1-1000 nM) | CAF#7 | low |

Ask: // return the class label for CCCCCOC(=O)Nc1nc(=O)n([C@@H]2O[C@H](C)[C@@H](O)[C@H]2O)cc1F [Capecitabine] (tested concentration range 1-10000 nM)
Reply: low

###

# Tested on: CAF#7
# ASSAY COMMENT: drug sensitivity score (DSS2, normalised partial AUC of dose-response, 72 h CellTiter-Glo viability) (DSS (dimensionless)); higher = more sensitive (stronger growth inhibition / cytotoxicity); extreme values may be limits of the assay
# drug sensitivity score per entry
Please reply with the value in numeric form only.

Before answering, review these 2 worked examples.
| MOLECULE | drug sensitivity score |
| --- | --- |
| CCn1c(-c2nonc2N)nc2cnc(Oc3cccc(NC(=O)c4ccc(OCCN5CCOCC5)cc4)c3)cc21 (tested concentration range 1-10000 nM) | 4.7 |
| Oc1ccc2c(c1)CC[C@H](c1ccccc1)[C@@H]2c1ccc(OCCN2CCCC2)cc1 [Lasofoxifene] (tested concentration range 0.1-1000 nM) | 0 |

Given item Cc1cc(Nc2ncnc3ccc(NC4=NC(C)(C)CO4)cc23)ccc1Oc1ccn2ncnc2c1 [Tucatinib] (tested concentration range 0.2-2500 nM) , the value recorded as its drug sensitivity score is 0
